# testedTarget: MASP-2 (CCP1-CCP2-SP) (Homo sapiens (Human))
# Sequence (O00187 445-686): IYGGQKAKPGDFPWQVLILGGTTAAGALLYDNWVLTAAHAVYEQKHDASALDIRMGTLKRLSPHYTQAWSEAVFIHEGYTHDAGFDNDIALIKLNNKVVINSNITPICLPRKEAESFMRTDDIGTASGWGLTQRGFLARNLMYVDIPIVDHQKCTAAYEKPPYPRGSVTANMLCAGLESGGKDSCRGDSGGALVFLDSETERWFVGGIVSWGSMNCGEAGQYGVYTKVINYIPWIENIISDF
# assayProtocol: biochemical
# Format: biochemical
Where a name gives a salt, the structure may show the parent alone.
quantity: Ki

Could you share what Ki was measured for `C[C@H](NC(=O)[C@H]1C[C@H](c2ccccc2)CN1)C(=O)NCc1ccc(C(=N)NC(=O)OCC(F)(F)F)cc1` , tested on MASP-2 (CCP1-CCP2-SP) (Homo sapiens (Human))? 500 to 2500 nM

Please provide the recorded Ki for `C[C@H](NC(=O)[C@H](N)CCc1ccccc1)C(=O)NCc1cc(Cl)ccc1[N+](=O)[O-]` , tested on MASP-2 (CCP1-CCP2-SP) (Homo sapiens (Human)). 10000 to 25000 nM

Value wanted: Ki (MASP-2 (CCP1-CCP2-SP) (Homo sapiens (Human))) of entry C[C@H](NC(=O)[C@H]1C[C@H](c2ccccc2)CN1)C(=O)NCc1cc(Cl)c[nH]c1=O [compound 1301, Hydrochloride] 2500 to 10000 nM

Identify the measured Ki of `COc1cc(C(=N)N)ccc1CNC(=O)[C@H](C)NC(=O)[C@H](N)CCc1ccccc1` for MASP-2 (CCP1-CCP2-SP) (Homo sapiens (Human)). 500 to 2500 nM

Form: Entry = N=C(N)c1ccc2[nH]c(Cc3ccccn3)nc2c1 [compound 2002, Dihydrochloride] | System = MASP-2 (CCP1-CCP2-SP) (Homo sapiens (Human)) | Ki = ____ > 25000 nM

Provide the documented Ki with MASP-2 (CCP1-CCP2-SP) (Homo sapiens (Human)) as the system for `C[C@H](NC(=O)[C@H](N)CCc1ccccc1)C(=O)NCc1cnc(N)c(Cl)c1` 500 to 2500 nM

Return Ki measured with MASP-2 (CCP1-CCP2-SP) (Homo sapiens (Human)) given this molecule: `CC(=O)O/N=C(\N)c1ccc(CNC(=O)[C@H](C)NC(=O)[C@H]2C[C@H](c3ccccc3)CN2)cc1` 2500 to 10000 nM

Please provide the recorded Ki for C[C@H](NC(=O)[C@H](N)CCc1ccccc1)C(=O)NCc1ccnc(N)c1 [compound 1296, Dihydrochloride] , tested on MASP-2 (CCP1-CCP2-SP) (Homo sapiens (Human)). 2500 to 10000 nM

Return Ki measured with MASP-2 (CCP1-CCP2-SP) (Homo sapiens (Human)) given this molecule: N=C(N)c1ccc2[nH]c(-c3cccc(-c4ccc(F)cc4)n3)nc2c1 [compound 2016, dihydrochloride] > 25000 nM

State its Ki on MASP-2 (CCP1-CCP2-SP) (Homo sapiens (Human)): C[C@H](NC(=O)[C@H](N)CCc1ccccc1)C(=O)NCc1cc(C#N)ccc1O [compound 1314, Trifluoroacetate salt] 10000 to 25000 nM

Please tell me: Ki of C[C@H](NC(=O)[C@H]1C[C@H](c2ccccc2)CN1)C(=O)NCc1ccn2ccnc2c1 [compound 1366, Dihydrochloride] , system MASP-2 (CCP1-CCP2-SP) (Homo sapiens (Human))? 2500 to 10000 nM

Request: Ki, test system MASP-2 (CCP1-CCP2-SP) (Homo sapiens (Human)), entry `C[C@H](NC(=O)[C@@H]1C[C@@H](Cc2ccccc2)CN1)C(=O)NCc1ccc(C(=N)N)cc1` 500 to 2500 nM

Lab note: need Ki with MASP-2 (CCP1-CCP2-SP) (Homo sapiens (Human)) for entry N=C(N)c1ccc(CNC(=O)[C@H](Cc2cnc[nH]2)NC(=O)[C@H](N)CCc2ccccc2)cc1 [compound 1332, Di-trifluoroacetate] , please look it up. 10000 to 25000 nM

Given the entry Cc1nc(N)ccc1CNC(=O)[C@H](C)NC(=O)[C@@H](CCc1ccccc1)NCc1ccc(C(=O)N2CCOCC2)cc1 [compound 1381, Di-trifluoroacetate salt] , what Ki was observed with MASP-2 (CCP1-CCP2-SP) (Homo sapiens (Human))? 500 to 2500 nM
